Cited source: PubChem BioAssay

ASSAYED SYSTEM: NADPH oxidase 2 (Homo sapiens)
ASSAY PROCEDURE: compounds shifting NOX2 Amplex Red fluorescence – cell-based, HEK293-NOX2, PMA-stimulated, NOX inhibitor project, primary screen (AID 1159); also: test concentration not given here
SETTINGS: 45 min, higher = more signal, called active from +8 up or from −8 down
MEASUREMENT KIND: z-score
Numbers only.

Example cases with answers are listed next.
• COC(=O)C(CC#Cc1ccc2c(c1)[C@]1(C(=O)N2)[C@H](C(=O)N2CCCCCCC2)[C@H]2C(=O)O[C@H](c3ccccc3)[C@H](c3ccccc3)N2[C@@H]1c1ccccc1OCCO)C(=O)OC = 0.445
• Cc1ccc([C@H]2C(C(=O)O)=C[C@@H](C(C)C)N2S(=O)(=O)c2ccc(C)cc2)cc1 = 0.79
• CN(C)CCCCCCNC(=O)[C@@H]1C[C@@H]2C(=O)NCC(=O)N2[C@@H]1c1cccc(OCCO)c1 = 0.438
• COCCn1c(C(=O)N2CCCC2)cc2c1C[C@H]1CN(C(=O)c3ccccc3)[C@@](Cc3ccc(OC)cc3)(C(=O)OC)[C@@H]21 = 0.121
• CCCC[C@H]1C[C@@H]1[C@@H]1N(P(=O)(c2ccccc2)c2ccccc2)[C@](CO)(c2ccccc2)CC12CC2 = -0.339

Your task in this section: give z-score for each listed record.
1. COC(=O)[C@@]1(Cc2ccc(OC)cc2)[C@H]2c3cc(C(=O)N(C)C)n(Cc4ccc(OC)c(OC)c4)c3C[C@H]2CN1C(=O)c1ccccc1
2. O=C(CS)NCCCCCNC(=O)[C@H]1C[C@H]2C(=O)N[C@@H](Cc3ccccc3)C(=O)N2[C@H]1c1cccc(OCCO)c1

result:
[0.178, 1.69]
